- test: Rabbit pharmacokinetics assay
- Format: in vivo, New Zealand rabbits
- experimental-conditions: female, New Zealand, plasma, intravenous injection 5 mg/kg, read-out: Half-life T1/2 (converted)
- Description: Test Example 5. Rabbit Pharmacokinetics Assay of Example 11 of the Present Invention Rabbits were used as test animals. The plasma concentrations at various times were determined by LC/MS/MS after intragastric administration of the compound of Example 11, and intravenous administration of the compound of Example 11 to rabbits. The pharmacokinetic behavior of the present compound in rabbits was studied, and the pharmacokinetic features were evaluated. […]
measure: half-life (h)
State the answer as a number, implicitly in h.

Sample CONC(=O)Nc1ccc(-n2nc3c(c2CN(C)C)c(=O)n(-c2ccc(OC)nn2)c(=O)n3Cc2c(F)cccc2F)cc1 ; half-life observed: 4.6

----------
- test: Seven-day toxicokinetic evaluation in rats
- Set-up: species or system SD rats
- experimental-conditions: female, SD, rat, in vivo, po, 240 mg/kg, AUC0-t
measure: AUC0-t (µg·h/mL)
State the answer as a number, implicitly in µg·h/mL.

Sample CONC(=O)Nc1ccc(-n2nc3c(c2CN(C)C)c(=O)n(-c2ccc(OC)nn2)c(=O)n3Cc2c(F)cccc2F)cc1 ; AUC0-t observed: 639

----------
- test: Rat pharmacokinetics assay
- Type: in vivo, Sprague-Dawley (SD) rats
- experimental-conditions: both sexes, Sprague-Dawley, plasma, iv, i.v. 5 mg/kg, read-out: Half-life T1/2 (converted)
measure: half-life (h)
State the answer as a number, implicitly in h.

Sample CONC(=O)Nc1ccc(-n2nc3c(c2CN(C)C)c(=O)n(-c2ccc(OC)nn2)c(=O)n3Cc2c(F)cccc2F)cc1 ; half-life observed: 1.59

----------
- test: Seven-day toxicokinetic evaluation in rats
- Design: species or system SD rats
- experimental-conditions: female, SD, rat, in vivo, po, 80 mg/kg
measure: Vd/F (L/kg)
State the answer as a number, implicitly in L/kg.

Sample CONC(=O)Nc1ccc(-n2nc3c(c2CN(C)C)c(=O)n(-c2ccc(OC)nn2)c(=O)n3Cc2c(F)cccc2F)cc1 [Example 11] ; Vd/F observed: 2.09

----------
- test: Rat pharmacokinetics assay
- Format: in vivo, Sprague-Dawley (SD) rats
- experimental-conditions: both sexes, Sprague-Dawley, plasma, oral 10 mg/kg, read-out: Half-life T1/2 (converted)
Please use Yes whenever half-life is not below 3 h, and No whenever it is.

### Prompt Hello, I need to know if CONC(=O)Nc1ccc(-n2nc3c(c2CN(C)C)c(=O)n(-c2ccc(OC)nn2)c(=O)n3Cc2c(F)cccc2F)cc1 has measured half-life not below 3 h. Thanks!
### Response No

### Prompt Hello, I need to know if CONC(=O)Nc1ccc(-n2nc3c(c2CN(C)C)c(=O)n(-c2cccc(OC)c2F)c(=O)n3Cc2c(F)cccc2F)cc1 has measured half-life not below 3 h. Thanks!
### Response No

### Prompt Hello, I need to know if CCNC(=O)Nc1ccc(-c2cn3c(c2CN(C)C)c(=O)n(-c2cccc(OC)c2F)c(=O)n3Cc2c(F)cccc2F)cc1 has measured half-life not below 3 h. Thanks!
### Response Yes

### Prompt Hello, I need to know if CCNC(=O)Nc1ccc(-n2nc3c(c2CN(C)C)c(=O)n(-c2cccc(OC)c2F)c(=O)n3Cc2c(F)cccc2F)cc1 has measured half-life not below 3 h. Thanks!
### Response Yes

### Prompt Hello, I need to know if CNC(=O)Nc1ccc(-n2nc3c(c2CN(C)C)c(=O)n(-c2cccc(OC)c2F)c(=O)n3Cc2c(F)cccc2F)cc1 has measured half-life not below 3 h. Thanks!
### Response No

### Prompt Hello, I need to know if CCNC(=O)Nc1ccc(-n2nc3c(c2CN(C)C)c(=O)n(-c2ccc(OC)nn2)c(=O)n3Cc2c(F)cccc2F)cc1 has measured half-life not below 3 h. Thanks!
### Response No

----------
- test: Seven-day toxicokinetic evaluation in rats
- Set-up: species or system SD rats
- experimental-conditions: female, SD, rat, in vivo, po, 240 mg/kg, tmax
measure: tmax (h)
State the answer as a number, implicitly in h.

Sample CONC(=O)Nc1ccc(-n2nc3c(c2CN(C)C)c(=O)n(-c2ccc(OC)nn2)c(=O)n3Cc2c(F)cccc2F)cc1 [Example 11] ; tmax observed: 8

----------
- test: Seven-day toxicokinetic evaluation in rats
- Parameters: species or system SD rats
- experimental-conditions: female, SD, rat, in vivo, po, 80 mg/kg, Cmax
measure: Cmax (ng/mL)
State the answer as a number, implicitly in ng/mL.

Sample CONC(=O)Nc1ccc(-n2nc3c(c2CN(C)C)c(=O)n(-c2ccc(OC)nn2)c(=O)n3Cc2c(F)cccc2F)cc1 ; Cmax observed: 17800

----------
- experimental-target: human GnRHr (Homo sapiens (Human), UniProt P30968)
- Sequence (P30968 whole entry): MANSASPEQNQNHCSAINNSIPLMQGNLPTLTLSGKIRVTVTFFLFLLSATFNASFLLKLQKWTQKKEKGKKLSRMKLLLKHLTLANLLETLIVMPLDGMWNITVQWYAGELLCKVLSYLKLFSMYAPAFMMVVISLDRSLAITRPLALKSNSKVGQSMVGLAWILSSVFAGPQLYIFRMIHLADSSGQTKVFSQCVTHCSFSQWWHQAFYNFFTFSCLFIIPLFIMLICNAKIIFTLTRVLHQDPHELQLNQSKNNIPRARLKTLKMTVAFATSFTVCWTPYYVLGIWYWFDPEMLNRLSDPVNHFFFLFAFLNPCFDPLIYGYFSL
- test: Human GnRHr (GnRH receptor) activity assay, Fluo-4 calcium signal in Human GnRHr/CHO stably transfected cell lines
- experimental-conditions: Human GnRHr/CHO cells, GnRH polypeptide stimulant
measure: pIC50
In plain terms, pIC50 is the concentration in mol/L turned into minus its base-10 logarithm.

Sample CONC(=O)Nc1ccc(-n2nc3c(c2CN(C)C)c(=O)n(-c2cccc(OC)c2F)c(=O)n3Cc2c(F)cccc2C(F)(F)F)cc1 [Example 7] ; pIC50 observed: 9.31

Sample CNC(=O)Nc1ccc(-n2nc3c(c2CN(C)C)c(=O)n(-c2cccc(OC)c2F)c(=O)n3Cc2c(F)cccc2C(F)(F)F)cc1 [Example 8] ; pIC50 observed: 9.22

Sample CONC(=O)Nc1ccc(-n2nc3c(c2CN(C)C)c(=O)n(-c2cccc(OC)c2F)c(=O)n3Cc2c(F)cccc2F)cc1 [Example 2] ; pIC50 observed: 8.84

Sample CNC(=O)Nc1ccc(-n2nc3c(c2CN(C)C)c(=O)n(-c2cccc(OC)c2F)c(=O)n3Cc2c(F)cccc2F)cc1 [Example 5] ; pIC50 observed: 9.18

Sample CCNC(=O)Nc1ccc(-n2nc3c(c2CN(C)C)c(=O)n(-c2ccc(OC)nn2)c(=O)n3Cc2c(F)cccc2F)cc1 [Example 10] ; pIC50 observed: 9.18

Sample CNC(=O)Nc1ccc(-n2nc3c(c2CN(C)C)c(=O)n(-c2ccc(OC)nn2)c(=O)n3Cc2c(F)cccc2F)cc1 [Example 9] ; pIC50 observed: 9.38

Sample CNC(=O)Nc1ccc(-n2nc3c(c2CN(C)C)c(=O)n(-c2ccc(OC)nn2)c(=O)n3Cc2c(F)cccc2C(F)(F)F)cc1 [Example 12] ; pIC50 observed: 8.65

----------
- test: Rat pharmacokinetics assay
- Type: in vivo, Sprague-Dawley (SD) rats
- experimental-conditions: both sexes, Sprague-Dawley, plasma, oral 10 mg/kg, read-out: Apparent volume of distribution Vz/F
Would you mind telling me the reported Vd/F of each entry?
State the answer as a number, implicitly in L/kg.

Sample CCNC(=O)Nc1ccc(-n2nc3c(c2CN(C)C)c(=O)n(-c2ccc(OC)nn2)c(=O)n3Cc2c(F)cccc2F)cc1 ; Vd/F observed: 30.3

Sample CCNC(=O)Nc1ccc(-c2cn3c(c2CN(C)C)c(=O)n(-c2cccc(OC)c2F)c(=O)n3Cc2c(F)cccc2F)cc1 ; Vd/F observed: 231

Sample CONC(=O)Nc1ccc(-n2nc3c(c2CN(C)C)c(=O)n(-c2ccc(OC)nn2)c(=O)n3Cc2c(F)cccc2F)cc1 ; Vd/F observed: 3.29

Sample CNC(=O)Nc1ccc(-n2nc3c(c2CN(C)C)c(=O)n(-c2cccc(OC)c2F)c(=O)n3Cc2c(F)cccc2F)cc1 ; Vd/F observed: 46.8

Sample CNC(=O)Nc1ccc(-n2nc3c(c2CN(C)C)c(=O)n(-c2ccc(OC)nn2)c(=O)n3Cc2c(F)cccc2F)cc1 ; Vd/F observed: 72

Sample CONC(=O)Nc1ccc(-n2nc3c(c2CN(C)C)c(=O)n(-c2cccc(OC)c2F)c(=O)n3Cc2c(F)cccc2F)cc1 ; Vd/F observed: 14.4

Sample CCNC(=O)Nc1ccc(-n2nc3c(c2CN(C)C)c(=O)n(-c2cccc(OC)c2F)c(=O)n3Cc2c(F)cccc2F)cc1 ; Vd/F observed: 96.2

----------
- test: Seven-day toxicokinetic evaluation in rats
- Parameters: species or system SD rats
- experimental-conditions: female, SD, rat, in vivo, po, 80 mg/kg, MRT0-∞
measure: MRT inf (h)
State the answer as a number, implicitly in h.

Sample CONC(=O)Nc1ccc(-n2nc3c(c2CN(C)C)c(=O)n(-c2ccc(OC)nn2)c(=O)n3Cc2c(F)cccc2F)cc1 ; MRT inf observed: 5.82

----------
- test: Rabbit pharmacokinetics assay
- Format: in vivo, New Zealand rabbits
- experimental-conditions: female, New Zealand, plasma, oral 30 mg/kg, read-out: Residence time MRT
measure: MRT (h)
State the answer as a number, implicitly in h.

Sample CONC(=O)Nc1ccc(-n2nc3c(c2CN(C)C)c(=O)n(-c2ccc(OC)nn2)c(=O)n3Cc2c(F)cccc2F)cc1 ; MRT observed: 3.94

The reported measurements were obtained from patent US10344034B2.
